- ASSAYED TARGET: OTUD5 (UniProt Q96G74)
- Sequence (whole entry): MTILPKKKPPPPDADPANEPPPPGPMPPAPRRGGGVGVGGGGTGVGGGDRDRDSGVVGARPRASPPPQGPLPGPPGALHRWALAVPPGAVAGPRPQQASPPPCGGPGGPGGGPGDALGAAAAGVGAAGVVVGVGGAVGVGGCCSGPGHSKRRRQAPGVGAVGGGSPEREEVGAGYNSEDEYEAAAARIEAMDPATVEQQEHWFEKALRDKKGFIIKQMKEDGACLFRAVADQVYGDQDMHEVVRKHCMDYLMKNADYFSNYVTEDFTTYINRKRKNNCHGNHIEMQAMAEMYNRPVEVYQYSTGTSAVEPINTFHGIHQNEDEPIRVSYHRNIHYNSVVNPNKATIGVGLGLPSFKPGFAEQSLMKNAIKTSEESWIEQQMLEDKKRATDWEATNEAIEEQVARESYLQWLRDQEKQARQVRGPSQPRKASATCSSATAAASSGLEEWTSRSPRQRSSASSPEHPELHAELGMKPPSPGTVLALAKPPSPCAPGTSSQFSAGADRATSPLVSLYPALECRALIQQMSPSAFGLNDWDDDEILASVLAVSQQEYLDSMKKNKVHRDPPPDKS
- TEST SUMMARY: log2 ratio of Biotin-Ahx-Ub-VS probe labelling (fragment/DMSO); higher = less target engagement (more negative = stronger competition), active = hit call of the paper (q ≤ 0.05, log2 ratio ≤ -1)
- EXPERIMENTAL CONDITIONS: compound concentration: 200 uM; treatment time: 3 h
RECORDED METRIC: log2 ratio of Biotin-Ahx-Ub-VS probe labelling

* Cc1nnc(C(NC(=O)CCl)c2ccccc2)n1C (centres undefined) | 0.385
* Cc1cccc(NC(=O)CCl)c1C | -0.394
* O=C(CCl)N1CCOC(c2cccc(F)c2)C1 (centres undefined) | -0.491
* Cc1ccc(N2CCC(NC(=O)CCl)C2=O)cc1 (centres undefined) | 0.0904
* CN1C(=O)c2ccc(NC(=O)CCl)cc2C1=O | -0.621
* O=C(CCl)NCc1ccc2c(c1)OCO2 | 0.0579
* O=C(CCl)N1CC2(CCOCC2)C1 | -0.493
* Cc1conc1C1CN(C(=O)CCl)C1 | -0.861
* Cc1ccn2cc(CNC(=O)CCl)nc2c1.Cl | -0.214
* O=C(CCl)Nc1cc(Cl)ccc1C(=O)O | -0.156
* O=C(CCl)NC1CCS(=O)(=O)c2ccccc21 (centres undefined) | -0.271
* CC1Cc2ccccc2N1C(=O)CCl (centres undefined) | -0.957
* Cc1cccnc1NC(=O)C1CCN(C(=O)CCl)CC1.Cl | -0.447
* Cc1ccc(N(C(=O)CCl)C2C=CS(=O)(=O)C2)cc1 (centres undefined) | -0.00864

====

- ASSAYED TARGET: YOD1 (UniProt Q5VVQ6)
- Sequence (Q5VVQ6 whole entry, the tested form may be a part): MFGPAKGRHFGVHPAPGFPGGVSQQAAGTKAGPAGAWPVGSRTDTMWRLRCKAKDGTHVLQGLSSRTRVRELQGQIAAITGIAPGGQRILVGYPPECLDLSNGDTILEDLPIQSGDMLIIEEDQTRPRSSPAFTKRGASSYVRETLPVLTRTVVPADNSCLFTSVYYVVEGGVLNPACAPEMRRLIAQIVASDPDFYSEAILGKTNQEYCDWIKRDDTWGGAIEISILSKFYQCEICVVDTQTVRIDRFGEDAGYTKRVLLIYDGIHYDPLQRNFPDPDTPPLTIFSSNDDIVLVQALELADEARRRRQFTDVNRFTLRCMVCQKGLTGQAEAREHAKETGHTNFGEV
- TEST SUMMARY: log2 ratio of Biotin-Ahx-Ub-VS probe labelling (fragment/DMSO); higher = less target engagement (more negative = stronger competition), active = hit call of the paper (q ≤ 0.05, log2 ratio ≤ -1)
- EXPERIMENTAL CONDITIONS: compound concentration: 200 uM; treatment time: 3 h
RECORDED METRIC: log2 ratio of Biotin-Ahx-Ub-VS probe labelling

- O=C(CCl)NCC1(c2ccccc2)CC1: 0.0857
- Cc1ccc(CN(CCO)C(=O)CCl)cc1: -0.163
- CC(C)n1nccc1NC(=O)CCl: 0.0661
- Cc1cccn2cc(CCNC(=O)CCl)nc12.Cl: -0.095
- O=C(CCl)N1CCC2(CCC(O)CC2)CC1: 0.0256
- Cc1cc(Cl)ccc1NC(=O)CCl: -0.175
- Cc1cccnc1NC(=O)C1CCN(C(=O)CCl)CC1.Cl: -0.214
- O=C(CCl)NC1CCCCNC1=O (centres undefined): -0.218
- Cc1ccc(N(C(=O)CCl)C2C=CS(=O)(=O)C2)cc1 (centres undefined): 0.412
- O=C(CCl)NCCc1cccc2ccccc12: 0.263
- Cl.Cn1nc2c(c1CNC(=O)CCl)CCCC2: -0.144
- COc1ccc(Cl)cc1NC(=O)CCl: -0.669
- O=C(CCl)N1CCC(C(=O)N2CCCC2)CC1: 0.122
- O=C(CCl)NCc1ccc2c(c1)OCO2: 0.157
- O=C(CCl)NCc1ccc(N2CCOCC2)nc1: -0.207
- O=C(CCl)N1CCC(OCc2ccccc2F)CC1: 0.135
- C[C@H]1CN(C(=O)CCl)CCN1C(=O)c1cnn(C)c1.Cl: 0.0183
- COc1ccc(-c2csc(NC(=O)CCl)n2)cc1: -0.00199
- O=C(CCl)N1CCC(c2nc3ccccc3o2)CC1: -0.217
- CS(=O)(=O)N1CCCN(C(=O)CCl)CC1: 0.146
- O=C(CCl)N1CCC(c2noc3cc(F)ccc23)CC1: -0.0109
- O=C(CCl)Nc1cc(Cl)ccc1C(=O)O: 0.233
- Cc1nc(CNC(=O)CCl)c2ccccn12.Cl: 0.114
- O=C(CCl)N1CCOCC1C1CC1 (centres undefined): -0.172
- Cc1ccc2nnc(CNC(=O)CCl)n2c1: 0.241
- Cl.O=C(CCl)N1CC(c2ccc(Br)cn2)C1: -0.229
- Cc1n[nH]c2c1CN(C(=O)CCl)CC2: -0.674
- O=C(CCl)N(C1CCCC1)C1CCS(=O)(=O)C1 (centres undefined): 0.15
- Cc1nc(CN2CCCN(C(=O)CCl)CC2)no1.Cl: 0.273

====

- ASSAYED TARGET: EIF3H (UniProt O15372)
- Sequence (O15372 whole entry, the tested form may be a part): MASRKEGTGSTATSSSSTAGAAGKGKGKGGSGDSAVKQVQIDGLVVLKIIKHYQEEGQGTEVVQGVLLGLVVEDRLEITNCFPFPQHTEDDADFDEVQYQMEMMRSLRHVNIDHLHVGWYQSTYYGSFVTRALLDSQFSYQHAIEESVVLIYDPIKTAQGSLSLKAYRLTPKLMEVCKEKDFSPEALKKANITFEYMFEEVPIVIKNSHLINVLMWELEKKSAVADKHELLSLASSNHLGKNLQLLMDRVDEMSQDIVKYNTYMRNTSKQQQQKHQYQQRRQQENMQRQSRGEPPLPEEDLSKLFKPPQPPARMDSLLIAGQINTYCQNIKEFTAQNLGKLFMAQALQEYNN
- TEST SUMMARY: log2 ratio of Biotin-Ahx-Ub-VS probe labelling (fragment/DMSO); higher = less target engagement (more negative = stronger competition), active = hit call of the paper (q ≤ 0.05, log2 ratio ≤ -1)
- EXPERIMENTAL CONDITIONS: compound concentration: 200 uM; treatment time: 3 h
RECORDED METRIC: log2 ratio of Biotin-Ahx-Ub-VS probe labelling

• Cc1cc(C(=O)NC2CCN(C(=O)CCl)CC2)no1 = 0.0609 (inactive)
• CC(NC(=O)CCl)c1csc(-c2ccccc2)n1.Cl (configuration not stated) = -0.03 (inactive)
• Cc1ccc(C)c(Oc2ccc(CNC(=O)CCl)cn2)c1.Cl = 0.199 (inactive)
• O=C(CCl)N1CCOCC1C1CC1 (configuration not stated) = 0.16 (inactive)
• Cc1ccccc1OCC(=O)N1CCN(C(=O)CCl)CC1 = 0.19 (inactive)
• CCN(C(=O)CCl)C1CCCCC1 = 0.022 (inactive)
• CNC(=O)Cn1cc(NC(=O)CCl)cn1 = 0.0304 (inactive)

====

- ASSAYED TARGET: USP8 (UniProt P40818)
- Sequence (whole entry): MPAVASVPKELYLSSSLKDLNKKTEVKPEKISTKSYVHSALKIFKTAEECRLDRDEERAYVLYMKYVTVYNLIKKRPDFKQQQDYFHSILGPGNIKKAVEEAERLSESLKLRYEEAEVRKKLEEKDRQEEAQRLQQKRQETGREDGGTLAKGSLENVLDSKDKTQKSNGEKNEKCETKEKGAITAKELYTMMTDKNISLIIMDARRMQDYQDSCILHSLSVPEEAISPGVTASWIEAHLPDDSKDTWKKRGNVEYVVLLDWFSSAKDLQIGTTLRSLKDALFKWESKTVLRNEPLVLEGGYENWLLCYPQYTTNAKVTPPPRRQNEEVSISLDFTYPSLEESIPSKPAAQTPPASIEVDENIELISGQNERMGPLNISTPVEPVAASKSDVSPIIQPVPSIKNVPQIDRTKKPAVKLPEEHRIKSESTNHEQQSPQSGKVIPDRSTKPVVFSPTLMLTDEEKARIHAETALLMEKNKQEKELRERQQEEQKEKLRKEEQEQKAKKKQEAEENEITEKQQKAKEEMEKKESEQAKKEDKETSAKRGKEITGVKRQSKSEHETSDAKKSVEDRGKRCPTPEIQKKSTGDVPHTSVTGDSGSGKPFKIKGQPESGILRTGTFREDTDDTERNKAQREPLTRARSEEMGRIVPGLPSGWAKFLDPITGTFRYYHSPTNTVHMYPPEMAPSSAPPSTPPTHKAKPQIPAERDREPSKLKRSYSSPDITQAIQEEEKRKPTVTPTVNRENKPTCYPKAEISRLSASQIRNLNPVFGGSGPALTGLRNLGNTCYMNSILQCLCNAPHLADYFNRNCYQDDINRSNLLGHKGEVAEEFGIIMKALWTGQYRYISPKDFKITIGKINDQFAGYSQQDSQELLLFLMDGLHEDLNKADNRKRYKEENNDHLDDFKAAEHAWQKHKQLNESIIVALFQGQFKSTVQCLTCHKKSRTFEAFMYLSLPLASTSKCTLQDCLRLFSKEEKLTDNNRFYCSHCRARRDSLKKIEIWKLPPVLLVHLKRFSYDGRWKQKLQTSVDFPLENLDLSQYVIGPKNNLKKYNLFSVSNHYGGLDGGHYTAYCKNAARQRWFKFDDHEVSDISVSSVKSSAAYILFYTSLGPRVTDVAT
- TEST SUMMARY: log2 ratio of Biotin-Ahx-Ub-VS probe labelling (fragment/DMSO); higher = less target engagement (more negative = stronger competition), active = hit call of the paper (q ≤ 0.05, log2 ratio ≤ -1)
- EXPERIMENTAL CONDITIONS: compound concentration: 200 uM; treatment time: 3 h
RECORDED METRIC: log2 ratio of Biotin-Ahx-Ub-VS probe labelling

- Cc1cc(C(=O)NC2CCN(C(=O)CCl)CC2)no1: -0.0431
- Cl.O=C(CCl)N1CCc2ncncc2C1: -0.218
- O=C(CCl)N1CCOCC1C1CC1 (centres undefined): -0.168
- O=C(CCl)N1CCN(C(=O)Nc2ccccc2)CC1: 0.0931
- N#Cc1cnn(-c2ccccc2)c1NC(=O)CCl: -0.512
- O=C(CCl)N1CCc2ccccc2C(O)C1 (centres undefined): -0.372
- O=C(CCl)NCc1ccc(N2CCOCC2)c(F)c1: 0.129
- NC(=O)C1CCCN(C(=O)CCl)C1 (centres undefined): -0.122
- O=C(CCl)NCC(=O)N1CCCC1: -0.434
- O=C(CCl)N1CCN2C(=O)CCC2C1 (centres undefined): -0.376
- Cc1n[nH]c2c1CN(C(=O)CCl)CC2: -1.11
- C/C(=C\CNC(=O)CCl)c1cnn(C)c1.Cl: 0.115
- COc1ccc(Cl)cc1NC(=O)CCl: -0.171
- Cc1ccc(CN(CCO)C(=O)CCl)cc1: -0.664
